Listed next: entries and their corresponding protein stability index.
# Protocol Text: protein stability index of a GFP-peptide fusion (GPS, HEK-293T) (PSI 1-6); higher = more stable;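 further: 24-mer peptide tiles fused after GFP, lentivirally expressed, FACS-sorted into six equal bins by GFP/DsRed ratio, decoded by Illumina sequencing, PSI is the read-weighted mean bin number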
# Applied Conditions: treatment: DMSO; c terminus: a fixed tail appended
Please respond with just the number, no unit label.

Record excerpt, results attached:
DRLQVFHKRAIMPYGVYKKQQKDP [ATE1]	3.17
RPPLRRVRMSADAMLKALLGSKHK [TNNI2]	3.01
DGNKIFLCHCGKAFSHKSMRDRHV [ZBTB22]	2.39
DFGLAARLEPLEHRRRTICGTPNY [PLK2]	3.17

// query Reported protein stability index for AAAYSPSEALLYALVHDHQAYAHY [ANKRD9] : what is it?
// result 2.05

// query Value lookup for protein stability index; key = FNKPSRVPAPEAFRDPIWSTWALY [MYORG]
// result 2.23

// query Would you kindly share the measured protein stability index for LQIELGKCKAEHDQLLLNYAKKES [LMNB1] ?
// result 3.29

* * *

# Protocol Text: protein stability index of a GFP-peptide fusion (GPS, HEK-293T) (PSI 1-6); higher = more stable
# Applied Conditions: treatment: MLN4924 1 uM, 8 h; c terminus: a fixed tail appended
This section presents sequences with their documented protein stability index values.

// query Returns the measured protein stability index for the input sequence. Input: LPPEKGREVAKELGIPYYETSVVA [RHOBTB2]
// result 3.55

// query For the sequence KRTYWPDLDAKIREALVLRSVRVR [PLD5] , what protein stability index is on record?
// result 2.77

* * *

# Protocol Text: protein stability index of a GFP-peptide fusion (GPS, HEK-293T) (PSI 1-6); higher = more stable
# Applied Conditions: treatment: DMSO; c terminus: a fixed tail appended
Kindly return condition met if reported protein stability index is no lower than 4; return condition not met if it is lower.

EFDSEHNLTSNEGHSLKNLEHRLN [RASAL3]	condition met

// query Confirm if protein stability index reported for the sequence RGCSRVEGGGTSLHVACELARPEC [ANKRD9] is 4 or above.
// result condition not met

// query Would you say VCEHLNLLEKDYFGLTYRDAENQK [EPB41L3] shows protein stability index at minimum 4?
// result condition met

// query Quick check: does PPAQGRVSRRLSPRKVSTCTDHEL [TRIM9] have protein stability index greater than or equal to 4?
// result condition met

// query For this sequence, is measured protein stability index 4 or higher? QAKPEKAAVAQKPRSHFTTPAPMS [MYBL2]
// result condition met

// query Please check the record LLPVQVVTEHPLELIRVEVEILDL [PCDHGC5] and state if its protein stability index is at or above 4.
// result condition not met

// query Would you say IDIIPNPQERTLTLVDTGIGMTKA [HSP90AB1] shows protein stability index at minimum 4?
// result condition not met

* * *

# Protocol Text: protein stability index of a GFP-peptide fusion (GPS, HEK-293T) (PSI 1-6); higher = more stable
# Applied Conditions: treatment: MLN4924 1 uM, 8 h; c terminus: a fixed tail appended
Please enter fulfilled where protein stability index is greater than or equal to 3, and not fulfilled where it is lower.

// query Given MTEAALALSEQKAQDLGELLATAE [LRRC45] , state whether its protein stability index is at least 3.
// result fulfilled

// query protein stability index >= 3 for KSVQGTGLAFIAFTEAMTHFPASP [SLC6A17] ?
// result not fulfilled

// query Test whether the sequence ACGVILYILLVGYPPFWDEDQHRL [CAMK2D] records protein stability index of 3 or higher.
// result not fulfilled
